# credit: the supplement of paper PMC11018630

System: RDEB dermal fibroblasts EB71
Assay procedure: day of extracellular matrix detachment from plate (days); higher = delayed detachment (less fibrotic matrix)
Measurement setup: compound concentration: 10 uM
Where a name gives a salt, the structure may show the parent alone. Whole data set: some 1,100 compounds, median “day of extracellular matrix detachment from plate” near 16, cut for the lowest 2% near 10. For the sample, the lowest values were picked, then their nearest neighbours and some compounds at random.
Measured quantity: day of extracellular matrix detachment from plate

Compound	Obs value
C=C(c1ccc(C(=O)O)cc1)c1cc2c(cc1C)C(C)(C)CCC2(C)C	9
Oc1cc(O)c(Cl)cn1	12
O=C(O)CCCN1CCC(O[C@@H](c2ccc(Cl)cc2)c2ccccn2)CC1 [Bepotastine Besilate]	18.7
C[C@@H]1C[C@H]2[C@@H]3CCC4=CC(=O)C=C[C@]4(C)[C@@]3(Cl)[C@@H](O)C[C@]2(C)[C@@]1(OC(=O)c1ccco1)C(=O)CCl [Mometasone furoate]	29.5
CC(C)(C)NCC(O)c1ccc(O)c(CO)c1 (configuration not stated) [Salbutamol Sulfate]	19
CC1(C)CCC(C)(C)c2cc(NC(=O)c3ccc(C(=O)O)cc3)ccc21	19
CN1CCC(=C2c3ccccc3CCn3c(C=O)cnc32)CC1	19.3
CO/N=C(\C(=O)N[C@@H]1C(=O)N2C(C(=O)OCOC(=O)C(C)(C)C)=C(/C=C\c3scnc3C)CS[C@H]12)c1csc(N)n1	15.7
NC[C@H](O)c1ccc(O)c(O)c1 [Noradrenaline bitartrate monohydrate]	16.7
O=c1ccn([C@@H]2O[C@H](CO)[C@@H](O)[C@H]2O)c(=O)[nH]1	12
CNC[C@@H](O)c1ccc(O)c(O)c1	10
C=C[C@]1(C)C[C@@H](OC(=O)CSC(C)(C)CNC(=O)[C@H](N)C(C)C)[C@]2(C)[C@H](C)CC[C@]3(CCC(=O)[C@H]32)[C@@H](C)[C@@H]1O [Valnemulin HCl]	19
Cn1nnc2c(C(N)=O)ncn2c1=O [Temozolomide]	9.67
O=C1C(O)=C([C@H]2CC[C@H](c3ccc(Cl)cc3)CC2)C(=O)c2ccccc21	18
COc1cc2ncnc(Nc3ccc(F)c(Cl)c3)c2cc1OCCCN1CCOCC1 [Gefitinib (ZD1839)]	29.4
C[C@@H]1COC(Nc2ccc3ncnc(Nc4ccc(OCc5nccs5)c(Cl)c4)c3c2)=N1	31
CCC(=O)O[C@@H](O[P@](=O)(CCCCc1ccccc1)CC(=O)N1C[C@H](C2CCCCC2)C[C@H]1C(=O)O)C(C)C [Fosinopril Sodium]	19

* * *

The entries below are paired with their reported day of extracellular matrix detachment from plate.
System: RDEB dermal fibroblasts EB71
Assay procedure: day of extracellular matrix detachment from plate (days); higher = delayed detachment (less fibrotic matrix)
Measurement setup: compound concentration: 10 uM
Over roughly 1,100 compounds, “day of extracellular matrix detachment from plate” has its median near 16; the lowest 2% begin near 10. The full list was thinned out, with the lowest values kept by preference.
Measured quantity: day of extracellular matrix detachment from plate

Compound	Obs value
C#C[C@]1(O)CC[C@H]2[C@@H]3CCc4cc(O)ccc4[C@H]3CC[C@@]21C	14
CO[C@H]1/C=C/O[C@@]2(C)Oc3c(C)c(O)c4c(O)c(c(/C=N/N5CCN(C6CCCC6)CC5)c(O)c4c3C2=O)NC(=O)/C(C)=C\C=C\[C@H](C)[C@H](O)[C@@H](C)[C@@H](O)[C@@H](C)[C@H](OC(C)=O)[C@@H]1C	12
O=C(O)CCc1nc2ccccc2[nH]1	13
Cc1cc(C#N)cc(C)c1Oc1nc(Nc2ccc(C#N)cc2)nc(N)c1Br	18
NS(=O)(=O)c1cc2c(cc1Cl)N=C(CSCc1ccccc1)NS2(=O)=O [Benzthiazide]	13
Cc1cccc(Nc2ccncc2S(=O)(=O)NC(=O)NC(C)C)c1 [Torsemide]	15.7
O=S(=O)(O)Oc1ccc(C(c2ccc(OS(=O)(=O)O)cc2)c2ccccn2)cc1 [Sodium Picosulfate]	14.5

* * *

Tested on: RDEB dermal fibroblasts EB71
Assay procedure: day of extracellular matrix detachment from plate (days); higher = delayed detachment (less fibrotic matrix)
Measurement setup: compound concentration: 10 uM
Structures can show the parent of a compound that is named as a salt. In all, about 1,100 compounds were measured (“day of extracellular matrix detachment from plate”: median about 16, lowest 2% from about 10 on). For the sample, the lowest values were picked, then their nearest neighbours and some compounds at random.
# day of extracellular matrix detachment from plate per record follows
Measured quantity: day of extracellular matrix detachment from plate

> print(dat)
                                   molecule  obs.value
1  N#CC(c1ccc(Cl)cc1)c1c(Cl)cc(-n2ncc(=O)[nH]c2=O)cc1Cl (centres undefined) [Diclazuril]       15.7
2  CO[C@@H]1[C@@H](OC(N)=O)[C@@H](O)[C@H](Oc2ccc3c(O)c(NC(=O)c4ccc(O)c(CC=C(C)C)c4)c(=O)oc3c2C)OC1(C)C [Novobiocin Sodium]       15.7
3  C[C@H]1C[C@@H]2[C@H](C(=O)C[C@@]3(C)[C@H]2CC[C@]3(O)C(=O)CO)[C@@]2(C)C=CC(=O)C=C12 [Methylprednisone]       18.3
4     N=C(N)NC(=N)N1CCOCC1 [Moroxydine HCl]       19.3

* * *

Reported day of extracellular matrix detachment from plate is given for each of the following molecules.
System: RDEB dermal fibroblasts EB71
Assay procedure: day of extracellular matrix detachment from plate (days); higher = delayed detachment (less fibrotic matrix)
Measurement setup: compound concentration: 10 uM
Whole data set: some 1,100 compounds, median “day of extracellular matrix detachment from plate” near 16, cut for the lowest 2% near 10. The sample holds the lowest values, similar compounds and a random draw of the others, so the mix is not that of the screen.
Measured quantity: day of extracellular matrix detachment from plate

> print(dat)
                                   molecule                  assay.system  obs.value
1  C[C@@H]1CC(=O)NN=C1c1ccc(NN=C(C#N)C#N)cc1  RDEB dermal fibroblasts EB71       19.3
2    OC[C@@H](O)[C@@H](O)[C@H](O)[C@H](O)CO  RDEB dermal fibroblasts EB71       13.7
3  CC(=O)OCC(=O)[C@H]1CC[C@H]2[C@@H]3CCC4=CC(=O)CC[C@]4(C)[C@H]3CC[C@]12C [Deoxycorticosterone acetate]  RDEB dermal fibroblasts EB71         13
4                     S=c1[nH]cnc2nc[nH]c12  RDEB dermal fibroblasts EB71         15
5  CC[C@H](C)C(=O)O[C@H]1C[C@H](O)C=C2C=C[C@H](C)[C@H](CC[C@@H](O)C[C@@H](O)CC(=O)O)[C@H]21 [Pravastatin sodium]  RDEB dermal fibroblasts EB71         20
6            O=C[C@H](O)[C@@H](O)[C@H](O)CO  RDEB dermal fibroblasts EB71         10

* * *

Test system: RDEB dermal fibroblasts EB71
Assay procedure: day of extracellular matrix detachment from plate (days); higher = delayed detachment (less fibrotic matrix)
Measurement setup: compound concentration: 10 uM
In all, about 1,100 compounds were measured (“day of extracellular matrix detachment from plate”: median about 16, lowest 2% from about 10 on). The list comes from a sample in which the lowest values are over-represented; it also holds close analogues and randomly drawn compounds.
day of extracellular matrix detachment from plate listing for selected molecules.
Measured quantity: day of extracellular matrix detachment from plate

> print(dat)
                                   molecule  obs.value
1              [I-].[K+] [Potassium Iodide]       15.7
2  CC(=O)O[C@]1(C(C)=O)CC[C@H]2[C@@H]3C=C(Cl)C4=CC(=O)CC[C@]4(C)[C@H]3CC[C@@]21C [Chlormadinone acetate]       26.2
3  O=c1ccc2ccc(OCCCCN3CCN(c4cccc5sccc45)CC3)cc2[nH]1         17
4  CNC(=O)[C@H](Cc1c[nH]c2ccccc12)NC(=O)[C@@H](CC(=O)NO)CC(C)C         15

* * *

System: RDEB dermal fibroblasts EB71
Assay procedure: day of extracellular matrix detachment from plate (days); higher = delayed detachment (less fibrotic matrix)
Measurement setup: compound concentration: 10 uM
Structures can show the parent of a compound that is named as a salt. Whole data set: some 1,100 compounds, median “day of extracellular matrix detachment from plate” near 16, cut for the lowest 2% near 10. The entries come from a sample that favours the lowest values as a whole.
Mark Not satisfied for day of extracellular matrix detachment from plate values under 20, and Satisfied for everything at or above.

Compound	Class label
O=C(O[C@H]1CN2CCC1CC2)N1CCc2ccccc2[C@@H]1c1ccccc1 [Solifenacin succinate]	Satisfied
CCOc1nc2cccc(C(=O)OCc3oc(=O)oc3C)c2n1Cc1ccc(-c2ccccc2-c2noc(=O)[nH]2)cc1	Not satisfied
OC(CCN1CCCC1)(c1ccccc1)C1CCCCC1 (centres undefined) [Procyclidine HCl]	Not satisfied
Clc1ccc(CCC(Cn2ccnc2)Sc2c(Cl)cccc2Cl)cc1 (centres undefined) [Butoconazole nitrate]	Not satisfied
C=C1CC[C@H](O)C/C1=C/C=C1\CCC[C@]2(C)[C@@H]([C@H](C)/C=C/[C@H](C)C(C)C)CC[C@@H]12 [Vitamin D2]	Not satisfied
O=C1CC[C@@H](C(=O)N2CSC[C@H]2C(=O)O)N1	Not satisfied
CN(C)CCc1c[nH]c2ccc(CS(=O)(=O)N3CCCC3)cc12 [Almotriptan Malate]	Not satisfied
NCCc1ccc(O)c(O)c1 [Dopamine HCl]	Not satisfied
Cc1ccc(NC(=O)c2ccc(CN3CCN(C)CC3)cc2)cc1Nc1nc(-c2cccnc2)cs1	Satisfied
CCCNS(=O)(=O)Nc1ncnc(OCCOc2ncc(Br)cn2)c1-c1ccc(Br)cc1	Not satisfied
CC(C)(Oc1ccc(Cl)cc1)C(=O)O	Not satisfied
CC(=O)O[C@]1(C(C)=O)CC[C@H]2[C@@H]3C[C@H](C)C4=CC(=O)C=C[C@]4(C)[C@@]3(F)[C@@H](O)C[C@@]21C [Fluorometholone Acetate]	Satisfied
Nc1ccc(S(=O)(=O)Nc2ncccn2)cc1 [Sodium sulfadiazine]	Not satisfied
N[C@@H](CC(=O)N1CCn2c(nnc2C(F)(F)F)C1)Cc1cc(F)c(F)cc1F [Sitagliptin phosphate monohydrate]	Not satisfied
CCOC(=O)C1=C(C)NC(C)=C(C(=O)OCC)C1c1ccccc1/C=C/C(=O)OC(C)(C)C	Not satisfied
Nc1ccc(S(=O)(=O)Nc2ncccn2)cc1 [Sulfadiazine]	Not satisfied
Clc1cccc(Cl)c1NC1=NCCN1 [Clonidine HCl]	Not satisfied
NC[C@H]1CC[C@H](C(=O)O)CC1	Satisfied
CC(C)(C)c1nc(-c2cccc(NS(=O)(=O)c3c(F)cccc3F)c2F)c(-c2ccnc(N)n2)s1	Satisfied
Clc1ccc2c(c1)CCc1cccnc1C2=C1CCNCC1	Satisfied
COc1ccc(C[C@@H]2c3cc(OC)c(OC)cc3CC[N@+]2(C)CCC(=O)OCCCCCOC(=O)CC[N@@+]2(C)CCc3cc(OC)c(OC)cc3[C@H]2Cc2ccc(OC)c(OC)c2)cc1OC [Cisatracurium Besylate]	Not satisfied
C[C@@](Cc1ccc(O)c(O)c1)(NN)C(=O)O	Not satisfied
Cc1c(C)c2c(c(C)c1O)CC[C@@](C)(CCC[C@H](C)CCC[C@H](C)CCCC(C)C)O2	Not satisfied
CC(=O)/N=c1/sc(S(N)(=O)=O)nn1C [Methazolamide]	Not satisfied
CCOc1ccccc1OC(c1ccccc1)C1CNCCO1 (centres undefined) [Reboxetine mesylate]	Not satisfied
CN(C)[C@@H]1C(O)=C(C(N)=O)C(=O)[C@@]2(O)C(O)=C3C(=O)c4c(O)ccc(Cl)c4[C@@](C)(O)[C@H]3C[C@@H]12 [Chlortetracycline HCl]	Satisfied
C[C@](N)(Cc1ccc(O)c(O)c1)C(=O)O	Not satisfied
CC1(O)CCC(C(C)(C)O)CC1 (centres undefined) [Terpin (hydrate)]	Not satisfied
CC(=O)Nc1ccccc1 [Acetanilide]	Not satisfied
Cc1nc(C(=O)NCC(=O)O)c(O)c2ccc(Oc3ccccc3)cc12	Satisfied
CC(C)/N=c1\cc2n(-c3ccc(Cl)cc3)c3ccccc3nc-2cc1Nc1ccc(Cl)cc1	Not satisfied
Nc1ccc(/N=N/c2ccccc2)c(N)n1 [Phenazopyridine HCl]	Not satisfied
C=CCc1cc(OC)c(O)c(C(=O)NCCO)c1 [Alibendol]	Not satisfied
CCC(C)(C)c1ccc(CC(C)CN2C[C@@H](C)O[C@@H](C)C2)cc1 (some centres undefined) [Amorolfine HCl]	Not satisfied
